reported_endpoint: melting point

molecule="CN(C(=O)N1CC(C)(c2ccccc2)C(c2ccc(Cl)cc2)=N1)c1ccc(Cl)cc1 (stereo not given)" result="132 to 135 °C"
molecule=O=S1(=O)Cc2ccc(Cl)cc2C(c2ccc(F)cc2)=NN1 result="195 to 198 °C"
molecule=O=C1c2ccccc2C(=O)N1Cc1cn2ccccc2n1 result="230 to 232 °C"

The molecule listed as CCOC(=O)c1c(O)c2ccc(Cl)cc2c(=O)n1C shows melting point equal to 109 to 110 °C

The molecule listed as Cc1ccc(OC2CCN(C(=O)C(=O)O)CC2)cc1 shows melting point equal to 109 to 112 °C
